target: T1, recombinant human PD-L1 extracellular domain (ECD) protein (cat #FCL0784B, G&P Biosciences) (human, UniProt Q9NZQ7 19-238); test: blocking of the human CD80/PD-L1 interaction, 10 µM
T1 construct: extracellular domain; Bought protein; also called hPD-L1 protein; human PD-L1 protein
T1 sequence (Q9NZQ7 19-238): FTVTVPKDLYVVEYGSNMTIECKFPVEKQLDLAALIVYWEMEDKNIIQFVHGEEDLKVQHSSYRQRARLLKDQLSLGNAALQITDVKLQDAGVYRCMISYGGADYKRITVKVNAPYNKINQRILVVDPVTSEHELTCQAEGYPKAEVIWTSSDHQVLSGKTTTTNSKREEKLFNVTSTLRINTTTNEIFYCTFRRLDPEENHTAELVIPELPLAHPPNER
No end group written: not given here.
Exercise: state measured blocking efficiency at 10 µM for each of the binders provided.

Looking up HYPFRPHANQAS (not fully specified, 12-mer from phage display) [CLP001 peptide] , I found its blocking efficiency at 10 µM recorded as ~17%

Looking up WHFSYNWRWLPP (not fully specified, 12-mer from phage display) [CLP003 peptide] , I found its blocking efficiency at 10 µM recorded as ~48%

Looking up DYHDPSLPTLRK (not fully specified, 12-mer from phage display) [CLP004 peptide] , I found its blocking efficiency at 10 µM recorded as ~27%

Looking up WHRSYYTWNLNT (not fully specified, 12-mer from phage display) [CLP002 peptide] , I found its blocking efficiency at 10 µM recorded as ~48%
